Origin of the recorded values: the supplement of paper PMC9428881

# assay_summary: background-corrected fluorescence of 3'-dye-labeled ssDNA relative to brightest sequence (3'-GCGCG) (fraction); higher = brighter dye fluorescence (less quenching)
# measurement_parameters: dye: Cy5 (3' terminal)
Listed next: entries and their corresponding background-corrected fluorescence.
Respond numerically, and do not add a unit to the figure.

Worked cases, background-corrected fluorescence given:
1. TTTTTTGATGCGCATGCGCATTTTTTTTTTTTTTTCATAT [TATAC] :: 0.397
2. TTTTTTGATGAGCATGCTCATTTTTTTTTTTTTTTCCTAG [GATCC] :: 0.414

Sample TTTTTTGATGCTGCTCATCATTTTTTTTTTTTTTTCAAGG [GGAAC] ; background-corrected fluorescence observed: 0.489

Sample TTTTTTGATCATGCTGATGCTTTTTTTTTTTTTTTCGACA [ACAGC] ; background-corrected fluorescence observed: 0.429

----------
# assay_summary: background-corrected fluorescence of 3'-dye-labeled ssDNA relative to brightest sequence (3'-GCGCG) (fraction); higher = brighter dye fluorescence (less quenching)
# measurement_parameters: dye: Cy3 (3' terminal)
# cutoff 0.5 applies to background-corrected fluorescence; >= gives Criterion met, < gives Criterion not met

Worked examples follow.
1) TTTTTTGCTGCTGATGCTCATTTTTTTTTTTTTTTAACAG [GACAA] :: Criterion met
2) TTTTTTCATGCTGCTGCTGCTTTTTTTTTTTTTTTGAAAA [AAAAG] :: Criterion met
3) TTTTTTGATGCTCAGCATCATTTTTTTTTTTTTTTCAGTG [GTGAC] :: Criterion met
4) TTTTTGCAGCAGCATGCTGCTTTTTTTTTTTTTTTTTTAA [AATTT] :: Criterion met
5) TTTTTTCATGCTGCGCAGCATTTTTTTTTTTTTTTGAATT [TTAAG] :: Criterion met
6) TTTTTTCAGCAGCATCAGCATTTTTTTTTTTTTTTGTTGT :: Criterion met

[Q] Is it the case that TTTTTTGCTGCTGATGATCATTTTTTTTTTTTTTTAACCG [GCCAA] has background-corrected fluorescence reaching or exceeding 0.5?
[A] Criterion met

[Q] Is it the case that TTTTTTGCTGATGAGCATGATTTTTTTTTTTTTTTACCTC [CTCCA] has background-corrected fluorescence reaching or exceeding 0.5?
[A] Criterion not met

[Q] Is it the case that TTTTTTGATGAGCATGCTGATTTTTTTTTTTTTTTCCTAC [CATCC] has background-corrected fluorescence reaching or exceeding 0.5?
[A] Criterion not met

[Q] Is it the case that TTTTTTGATGATCAGCATGCTTTTTTTTTTTTTTTCCGTA [ATGCC] has background-corrected fluorescence reaching or exceeding 0.5?
[A] Criterion met

[Q] Is it the case that TTTTTTCAGCATCATGATGATTTTTTTTTTTTTTTGTGCC [CCGTG] has background-corrected fluorescence reaching or exceeding 0.5?
[A] Criterion not met

[Q] Is it the case that TTTTTTGATGCTCATGCTGATTTTTTTTTTTTTTTCAGAC has background-corrected fluorescence reaching or exceeding 0.5?
[A] Criterion not met

[Q] Is it the case that TTTTTTCAGCATGCTCAGCATTTTTTTTTTTTTTTGTAGT [TGATG] has background-corrected fluorescence reaching or exceeding 0.5?
[A] Criterion met

[Q] Is it the case that TTTTTTGCGCATGATGCTGCTTTTTTTTTTTTTTTATCAA [AACTA] has background-corrected fluorescence reaching or exceeding 0.5?
[A] Criterion met

[Q] Is it the case that TTTTTTCATCATCAGCAGCATTTTTTTTTTTTTTTGGGTT has background-corrected fluorescence reaching or exceeding 0.5?
[A] Criterion met

[Q] Is it the case that TTTTTGCATGCTGCGCATGCTTTTTTTTTTTTTTTTAATA [ATAAT] has background-corrected fluorescence reaching or exceeding 0.5?
[A] Criterion met
